# Tested on: rape sclerotinia sclerotiorum
# test_details: plate method, inhibition of hypha growth (in-vessel bioassay)
# Assay type: cell-based
// reported Measured Toxicity Index of Mixture (ATI) per item
Field format: numeric only.

Prompt: Which Measured Toxicity Index of Mixture (ATI) value belongs to "N#Cc1c(Cl)c(Cl)c(Cl)c(C#N)c1Cl" ?
Completion: 1.22

Prompt: Which Measured Toxicity Index of Mixture (ATI) value belongs to CC(C)(C)C(O)(CCc1ccc(Cl)cc1)Cn1cncn1 (stereo not shown) ?
Completion: 10.00

Prompt: Which Measured Toxicity Index of Mixture (ATI) value belongs to "CCCN(CCOc1c(Cl)cc(Cl)cc1Cl)C(=O)n1ccnc1" ?
Completion: 12.5

Could you now look at the following compound, please?
Prompt: Which Measured Toxicity Index of Mixture (ATI) value belongs to "N#Cc1c[nH]cc1-c1cccc2c1OC(F)(F)O2" ?
Completion: 66.67
